- experiment.notes: Terminal half life in rat at 1 mg/kg
- Format: ADME, organism-based
- Parameters: dose 1 mg/kg
- run.conditions: in vivo, read-out: beta t1/2 (converted)
recorded.endpoint: half-life (min)
One number for each entry, in min.

Some entries whose results are on file:
CCN(Cc1cc(C(F)(F)F)ccc1-c1nn(CC(=O)O)c2ccccc12)C(=O)C1CC1; 144
CCN(Cc1cc(C(F)(F)F)ccc1-c1cc(CC(=O)O)ccc1OC)C(=O)C1CC1; 354
CCN(Cc1cc(C(F)(F)F)ccc1-c1cn(CC(=O)O)c2ccccc12)C(=O)C1CC1; 90

Tell us which half-life value is on record for CCN(Cc1cc(C(F)(F)F)ccc1-n1cc(CC(=O)O)c2cccnc21)C(=O)C1CC1
318
